Data credit: ChEMBL document CHEMBL1765044

# ASSAY: Cytotoxicity against human MT4 cells infected with raltegravir-resistant Human immunodeficiency virus 1 1556-1
# Assay type: cell-based
# MEASUREMENT CONTEXT: MT4 cells infected with raltegravir-resistant HIV-1 1556-1, read-out: TC50 (the source's name)
QUANTITY: CC50 (nM)
Give bare numbers, in nM.

Req: Fill in the blank: the reported CC50 of CC(C)c1c(Cc2ccccc2)n(COCc2cccc(Cl)c2F)c(=O)n(O)c1=O is ____.
Resp: 2000

---

# ASSAY: Inhibition of HIV recombinant integrase strand transfer activity expressed in Escherichia coli after 60 mins using [32P]-labeled oligonucleotide substrate by densitometric analysis
# Design: species or system Human immunodeficiency virus
Exercise: state measured pIC50 for each of the molecules provided.
One number for each entry, as −log10 of the molar value.

>>> reported_result("CC(C)c1c(Cc2ccccc2)n(CCCCc2ccc(F)cc2)c(=O)n(O)c1=O")
6.25
>>> reported_result("CC(C)c1c(Cc2ccccc2)n(COCCCc2ccc(F)cc2)c(=O)n(O)c1=O")
5.49
>>> reported_result("CC(C)c1c(Cc2ccccc2)n(Cc2ccccc2)c(=O)n(O)c1=O")
4.55

Req: Fill in the blank: the reported pIC50 of CC(C)c1c(Cc2ccccc2)n(COCc2ccc(F)cc2F)c(=O)n(O)c1=O is ____.
Resp: 5.32

---

Exercise: state measured CC50 for each of the molecules provided.
# Tested on: CEM-SS
# ASSAY: Cytotoxicity against human CEM-SS cells infected with Human immunodeficiency virus 1 3B after 6 days by MTS assay
# Assay type: cell-based
# MEASUREMENT CONTEXT: cem-ss, 144 h

>>> reported_result("CC(C)c1c(Cc2ccc(F)cc2)n(COCc2ccccc2)c(=O)n(O)c1=O")
"> 20 µM"

// below: CC50 requested for another molecule
Req: Fill in the blank: the reported CC50 of CC(C)c1c(Cc2ccccc2)n(COCc2ccc(F)cc2F)c(=O)n(O)c1=O is ____.
Resp: > 100 µM

---

# ASSAY: Inhibition of HIV recombinant integrase strand transfer activity expressed in Escherichia coli after 60 mins using [32P]-labeled oligonucleotide substrate by densitometric analysis
# Parameters: species or system Human immunodeficiency virus
pIC50: −log10 of the molar value.
The label depends only on pIC50: 1 if it is at least 5, -1 if it is smaller.

Below, 8 compounds whose answers are already recorded.
>>> class_label("CC(C)c1c(Cc2ccccc2)n(COCc2ccc(F)cc2)c(=O)n(C)c1=O")
-1
>>> class_label("Cc1cn(Cc2ccccc2)c(=O)n(O)c1=O")
-1
>>> class_label("CCc1c(Cc2ccccc2)n(Cc2ccccc2)c(=O)n(O)c1=O")
-1
>>> class_label("COn1c(=O)c(C(C)C)c(Cc2ccccc2)n(COCc2ccc(F)cc2)c1=O")
-1
>>> class_label("CC(C)c1c(Cc2ccccc2)n(COCCc2ccc(F)cc2)c(=O)n(O)c1=O")
1
>>> class_label("CCc1c(Cc2ccccc2)n(Cc2ccc(F)cc2)c(=O)n(O)c1=O")
-1
>>> class_label("CC(C)c1c(Cc2ccc(F)cc2)n(Cc2ccc(F)cc2)c(=O)n(O)c1=O")
-1
>>> class_label("CC(C)c1c(Cc2ccc(F)cc2)n(Cc2ccccc2)c(=O)n(O)c1=O")
-1

Req: # bool: pIC50 of CC(C)c1c(Cc2ccccc2)n(Cc2ccc(F)cc2)c(=O)n(O)c1=O >= 5
Resp: -1

Req: # bool: pIC50 of Cc1cn(Cc2ccc(F)cc2)c(=O)n(O)c1=O >= 5
Resp: -1

Req: # bool: pIC50 of CC(C)c1c(Cc2ccc(F)cc2)n(COCc2ccc(F)cc2)c(=O)n(O)c1=O >= 5
Resp: 1
